These entries and their values trace back to patent US4465851A.

biological target: Plasma kallikrein (Homo sapiens); assay: Inhibition of plasma kallikrein (TAMe hydrolysis); conditions: TAMe substrate; read-out: Concentration for 50% inhibition (IC50), plasma kallikrein
Sequence (P03952 20-390 limits assumed, species assumed): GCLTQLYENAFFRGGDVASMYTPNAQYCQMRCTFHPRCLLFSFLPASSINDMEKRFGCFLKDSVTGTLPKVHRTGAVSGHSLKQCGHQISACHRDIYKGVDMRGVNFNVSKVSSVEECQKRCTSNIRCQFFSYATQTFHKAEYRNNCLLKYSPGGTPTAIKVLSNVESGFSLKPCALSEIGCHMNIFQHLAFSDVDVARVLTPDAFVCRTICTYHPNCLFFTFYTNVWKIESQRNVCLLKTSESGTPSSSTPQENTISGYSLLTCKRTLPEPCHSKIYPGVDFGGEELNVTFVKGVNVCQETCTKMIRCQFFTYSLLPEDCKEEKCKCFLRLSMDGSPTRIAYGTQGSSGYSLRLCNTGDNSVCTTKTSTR
Where a name gives a salt, the structure may show the parent alone.
OBSERVED_PROPERTY: IC50 (µM)
Answer format: numeric, µM implied, no suffix.

Worked examples, 2 compounds total:
Lab note: N=C(N)NC[C@H]1CC[C@H](C(=O)Oc2ccc([N+](=O)[O-])cc2)CC1 [Compound 15, hydrochloride] gave IC50 of 300

Value of IC50 reported for the compound CC(C)(C)c1ccc(OC(=O)[C@H]2CC[C@H](CNC(=N)N)CC2)cc1 [Compound 2, hydrochloride] is 150

# evaluate next
Summary for this compound, N=C(N)NC[C@H]1CC[C@H](C(=O)Oc2ccccc2Cl)CC1 [Compound 5, hydrochloride] : IC50 is 300
